# Study target: Torsin-1A-interacting protein 2 (Homo sapiens) (UniProt Q8NFQ8)
# Sequence (Q8NFQ8 whole entry, looked up): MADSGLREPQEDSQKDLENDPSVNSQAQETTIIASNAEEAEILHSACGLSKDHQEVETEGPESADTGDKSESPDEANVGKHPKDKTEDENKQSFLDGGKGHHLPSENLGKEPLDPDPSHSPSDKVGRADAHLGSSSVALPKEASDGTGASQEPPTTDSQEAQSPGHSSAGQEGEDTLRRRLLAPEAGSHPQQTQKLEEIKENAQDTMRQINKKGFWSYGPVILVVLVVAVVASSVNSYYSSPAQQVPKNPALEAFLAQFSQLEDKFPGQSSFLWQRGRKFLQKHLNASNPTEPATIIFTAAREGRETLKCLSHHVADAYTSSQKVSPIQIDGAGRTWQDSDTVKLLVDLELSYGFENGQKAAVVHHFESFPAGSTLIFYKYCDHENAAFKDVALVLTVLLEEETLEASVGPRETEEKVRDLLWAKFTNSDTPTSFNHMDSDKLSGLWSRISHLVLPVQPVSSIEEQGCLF
# Experimental protocol: LULL1 binders on small-molecule microarray, primary screen, cell lysate, human LULL1 lysate, 635/667 nm fluorescence (AID 1092);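 further: probe is lysate of COS7 cells overexpressing human LULL1; score merges per-feature 667 nm fluorescence with signal-to-noise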
# Assay setup: hLULL1 lysate binding, 635 nm fluorescence, higher = more signal
This listing pairs compounds with measured composite z-score.
Measure name: composite z-score

[[record]]
compound = "O=C1c2ccccc2C(=O)c2cc([C@H]3Oc4ccccc4S(=O)(=O)N4CCC[C@@H]34)ccc21"
study_target = "Torsin-1A-interacting protein 2 (Homo sapiens) (UniProt Q8NFQ8)"
result = -0.629

[[record]]
compound = "CC(C)C[C@@H]1NC(=O)[C@@]23C(=O)N[C@@H](Cc4ccccc4)C2[C@H](C)[C@@]2(C)O[C@H]2C3/C=C/C/C=C\\CNC(=O)[C@H](Cc2ccccc2)NC1=O (some centres not stated)"
study_target = "Torsin-1A-interacting protein 2 (Homo sapiens) (UniProt Q8NFQ8)"
result = 0.574

[[record]]
compound = "CN(C)CCCC[C@@H]1NC(=O)[C@@H]2C[C@H](C(=O)NCCCCCNC(=O)CS)[C@H](c3cccc(OCCO)c3)N2C1=O"
study_target = "Torsin-1A-interacting protein 2 (Homo sapiens) (UniProt Q8NFQ8)"
result = 0.127

[[record]]
compound = "COC(=O)C1=CC(CCCO)=CC(C2CC2)N(Cc2cc3c(cc2Br)OCO3)C=C1C(=O)OC (configuration not stated)"
study_target = "Torsin-1A-interacting protein 2 (Homo sapiens) (UniProt Q8NFQ8)"
result = 3

[[record]]
compound = "COCCOC(=O)N1C(=O)[C@@]2(c3cc(C#CCNC(N)=O)ccc31)[C@H](c1ccccc1OCCO)N1[C@H](c3ccccc3)[C@H](c3ccccc3)OC(=O)[C@H]1[C@@H]2C(=O)Nc1nc2ccccc2s1"
study_target = "Torsin-1A-interacting protein 2 (Homo sapiens) (UniProt Q8NFQ8)"
result = 1.58

[[record]]
compound = "CCOC(=O)C[C@H]1[C@H](OC(=O)c2cc3ccccc3oc2=O)[C@@H](NC(=O)c2ccccc2)c2cc(OCCCO)ccc2N1C(=O)Cc1ccc(OC)cc1"
study_target = "Torsin-1A-interacting protein 2 (Homo sapiens) (UniProt Q8NFQ8)"
result = 0.239

[[record]]
compound = "C=CC[C@]1(C(=O)N2CCCCC2)COC(c2ccc(OCCCO)cc2)=N1"
study_target = "Torsin-1A-interacting protein 2 (Homo sapiens) (UniProt Q8NFQ8)"
result = 2.43


###

# Experimental protocol: binders from COS7 lysate, DM2A8 probe, primary screen, torsin A project, cell lysate, small-molecule microarray, fluorescence 635/667 (AID 1065)
# Assay setup: higher = more signal, COS7 lysate expressing mutant human TOR1A
Measure name: composite z-score

[[record]]
molecule = "CC(C)(C)OC(=O)CC[C@]1(C(=O)NCc2ccccc2)N=C(c2ccc(OCCCO)cc2)O[C@H]1c1ccccc1N=[N+]=[N-]"
result_number = 1.11

[[record]]
molecule = "CC(C)NC(=O)[C@@H]1c2ccccc2C(=O)N(Cc2cc(F)cc(C(F)(F)F)c2)[C@H]1c1ccc(CO)cc1"
result_number = -0.197

[[record]]
molecule = "COCCCNC(=O)[C@@]1(CCS(=O)(=O)c2ccccc2)N=C(c2ccc(OCCCO)cc2)O[C@H]1c1ccccc1CN=[N+]=[N-]"
result_number = 0.865

[[record]]
molecule = "Cc1ccc(S[C@]2(C(=O)NC3CC3)CC(=O)N(Cc3ccccc3C(F)(F)F)[C@@H]2c2ccc(CO)cc2I)cc1"
result_number = 0.15

[[record]]
molecule = "C=C(CCCC)/C(=C/C[C@H](OC(=O)c1ccncc1)c1ccc(CO)o1)c1cnc2ccccc2c1"
result_number = 0.536

[[record]]
molecule = "COCCOC(=O)N1C(=O)[C@@]2(c3cc(C#CCCO)ccc31)[C@H](c1ccccc1OCCO)N1[C@H](c3ccccc3)[C@H](c3ccccc3)OC(=O)[C@H]1[C@@H]2C(=O)NC[C@H](O)c1ccccc1"
result_number = 2.15

[[record]]
molecule = "CCOC(=O)C[C@H]1[C@H](OC(=O)c2cc3ccccc3oc2=O)[C@@H](NC(=O)c2ccccc2)c2cc(OCCCO)ccc2N1C(=O)Cc1ccc(OC)cc1"
result_number = 0.682

[[record]]
molecule = "C=C(CCCC)/C(=C/C[C@@H](OC(=O)c1ccncc1)c1ccc(OCCO)cc1)c1cnc2ccccc2c1"
result_number = 0.379

[[record]]
molecule = "[N-]=[N+]=NCc1ccccc1C[C@@]1(C(=O)NCc2ccccc2)N=C(c2ccc(OCCCO)cc2)O[C@@H]1c1ccccc1"
result_number = 0.997

[[record]]
molecule = "C=CCNC(=O)[C@@H]1[C@H]2C(=O)O[C@H](c3ccccc3)[C@H](c3ccccc3)N2[C@H](c2ccc(O)cc2)[C@@]12C(=O)Nc1ccc(C#Cc3ccc(OC)cc3)cc12"
result_number = 0.712

[[record]]
molecule = "CO[C@H]1O[C@H](CO)[C@@H](OC(=O)Nc2ccccc2)[C@H](OC(=O)Nc2ccc3c(c2)OCO3)[C@H]1OC(=O)Nc1ccc2c(c1)OCO2"
result_number = 0.45

[[record]]
molecule = "COC(=O)C1=CC(c2ccc(CO)cc2)=CC(c2cccs2)N(C)C=C1C(=O)OC (centres undefined)"
result_number = 0.2

[[record]]
molecule = "O=c1n(-c2ccccc2)c(=O)n2n1CC(COc1ccccc1)=C1[C@@H](CCc3ccccc3)OB(O)C[C@@H]12"
result_number = -0.128

[[record]]
molecule = "O=C(NC1CC1)[C@@H]1c2ccccc2C(=O)N(Cc2ccccc2C(F)(F)F)[C@H]1c1ccc(CO)cc1"
result_number = 0.436


###

# Tested on: wheat germ agglutinin (Triticum aestivum), Alexa647-labelled
# Experimental protocol: wheat germ agglutinin binders on compound microarrays, profiling panel, artefact control for SMM control-protein annotation, biochemical, small-molecule microarray, 635/667 nm fluorescence (AID 1140);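 further: score merges 667 nm feature emission with signal to noise over triplicate slides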
# Assay setup: WGA-A647 binding, 635 nm fluorescence, higher = more signal
Measure name: composite z-score

[[record]]
molecule = "C=CCNC(=O)[C@H]1[C@@H]2C(=O)O[C@@H](c3ccccc3)[C@@H](c3ccccc3)N2[C@@H](c2ccc(OCCO)cc2)[C@]12C(=O)Nc1ccc(C#CCCO)cc12"
study_target = "wheat germ agglutinin (Triticum aestivum), Alexa647-labelled"
measure_name = "composite z-score"
result_number = 1.06

[[record]]
molecule = "COCCCN1C(=O)[C@@]2(Cc3ccccc31)c1ccccc1C(=O)N(Cc1ccccc1Cl)[C@H]2c1ccc(CO)cc1"
study_target = "wheat germ agglutinin (Triticum aestivum), Alexa647-labelled"
measure_name = "composite z-score"
result_number = -1.02

[[record]]
molecule = "[N-]=[N+]=NCc1ccccc1C[C@@]1(C(=O)NCc2ccccc2)N=C(c2ccc(OCCCO)cc2)O[C@@H]1c1ccccc1"
study_target = "wheat germ agglutinin (Triticum aestivum), Alexa647-labelled"
measure_name = "composite z-score"
result_number = 1

[[record]]
molecule = "C=CCC(OC(C)=O)[C@@H]1[C@@H](N(Cc2cccc3ccccc23)C(=O)c2cccc3ccccc23)c2cc(OCCCO)ccc2N1C(=O)Cc1ccc(OC)cc1 (stereo partly drawn)"
study_target = "wheat germ agglutinin (Triticum aestivum), Alexa647-labelled"
measure_name = "composite z-score"
result_number = 0.655

[[record]]
molecule = "C=CC[C@@H](OC(=O)Nc1ccc(SC)cc1)c1ccc(OCCO)cc1"
study_target = "wheat germ agglutinin (Triticum aestivum), Alexa647-labelled"
measure_name = "composite z-score"
result_number = -0.666

[[record]]
molecule = "O=C1c2ccccc2C(=O)c2cc([C@H]3Oc4ccccc4S(=O)(=O)N4CCC[C@@H]34)ccc21"
study_target = "wheat germ agglutinin (Triticum aestivum), Alexa647-labelled"
measure_name = "composite z-score"
result_number = -1.26

[[record]]
molecule = "COc1ccc([Si](C)(C)[C@@H]2[C@@H](CC(=O)N3CCC[C@H]3CO)O[C@]3(C(=O)N(Cc4ccc(I)cc4)c4ccccc43)[C@H]2C)cc1"
study_target = "wheat germ agglutinin (Triticum aestivum), Alexa647-labelled"
measure_name = "composite z-score"
result_number = 1.07

[[record]]
molecule = "COCCOC(=O)N1C(=O)[C@@]2(c3cc(C#CCCO)ccc31)[C@H](c1ccccc1OCCO)N1[C@H](c3ccccc3)[C@H](c3ccccc3)OC(=O)[C@H]1[C@@H]2C(=O)NC[C@H](O)c1ccccc1"
study_target = "wheat germ agglutinin (Triticum aestivum), Alexa647-labelled"
measure_name = "composite z-score"
result_number = 1.01

[[record]]
molecule = "COc1c(C)cc(-c2cc3c(c(CCc4ccccc4)n2)[Si](C(C)C)(C(C)C)OC3)cc1C"
study_target = "wheat germ agglutinin (Triticum aestivum), Alexa647-labelled"
measure_name = "composite z-score"
result_number = -0.442

[[record]]
molecule = "CCCCCN1CC=CC23O[C@@H]4/C=C\\CCC(C)OC(=O)C4[C@H]2C(=O)N(CCCO)[C@@H]3C1=O (stereo partly drawn)"
study_target = "wheat germ agglutinin (Triticum aestivum), Alexa647-labelled"
measure_name = "composite z-score"
result_number = -1.08

[[record]]
molecule = "COCCOC(=O)N1C(=O)[C@@]2(c3cc(C#CCNC(N)=O)ccc31)[C@H](c1ccccc1OCCO)N1[C@H](c3ccccc3)[C@H](c3ccccc3)OC(=O)[C@H]1[C@@H]2C(=O)Nc1nc2ccccc2s1"
study_target = "wheat germ agglutinin (Triticum aestivum), Alexa647-labelled"
measure_name = "composite z-score"
result_number = 1.04

[[record]]
molecule = "COc1ccc([Si](C)(C)[C@H]2[C@H](CC(=O)N3Cc4ccccc4C[C@H]3CO)O[C@@]3(C(=O)N(Cc4cccc(N5C(=O)COc6ccccc65)c4)c4ccccc43)[C@@H]2C)cc1"
study_target = "wheat germ agglutinin (Triticum aestivum), Alexa647-labelled"
measure_name = "composite z-score"
result_number = 0.862

[[record]]
molecule = "C/C=C/[C@@H](CCn1cc(CCO[Si](C(C)C)(C(C)C)C(C)C)nn1)[Si](C)(C)c1ccc(OC)cc1"
study_target = "wheat germ agglutinin (Triticum aestivum), Alexa647-labelled"
measure_name = "composite z-score"
result_number = -2.08

